Catalogue of percent kill after 24 hours, with GS 13005 values
Test system: polyvalent resistant (CH strain) houseflies
PROTOCOL DETAILS: whole plant or invertebrate
Type: in vivo
MEASUREMENT CONTEXT: GS 13005 1 + synergist 2 μg/fly; CH strain
Form entry: value (%) — number only.

percent kill after 24 hours, with GS 13005 value, target or system polyvalent resistant (CH strain) houseflies, for C#CCON=Cc1cccc2ccccc12 : 47

percent kill after 24 hours, with GS 13005 value, target or system polyvalent resistant (CH strain) houseflies, for C#CCON=C(C)c1ccc2ccccc2c1 : 100

percent kill after 24 hours, with GS 13005 value, target or system polyvalent resistant (CH strain) houseflies, for C#CCON=Cc1ccc(Cl)cc1Cl : 100

percent kill after 24 hours, with GS 13005 value, target or system polyvalent resistant (CH strain) houseflies, for C#CCON=C(C)c1ccc(Cl)cc1 : 100

percent kill after 24 hours, with GS 13005 value, target or system polyvalent resistant (CH strain) houseflies, for C#CCON=Cc1ccc(OC)c(OC)c1 : 45

percent kill after 24 hours, with GS 13005 value, target or system polyvalent resistant (CH strain) houseflies, for C#CCOCc1c(Cl)ccc(Cl)c1Cl : 100
